- Species on record: Homo sapiens
- method-description: Selectivity ratio of IC50 for human recombinant CYP1A1 to IC50 for human recombinant CYP1B1
experimental-readout: Ratio IC50

Past entries and their recorded results:
[
  {
    "molecule": "[N-]=[N+]=Nc1cccc(-c2cc(=O)c3ccc4ccccc4c3o2)c1",
    "Ratio IC50": 15.5
  },
  {
    "molecule": "C=C=C[C@H]1CC[C@H](c2cc(=O)c3ccc4ccccc4c3o2)CC1",
    "Ratio IC50": 1.02
  },
  {
    "molecule": "O=c1cc(C2CCCC(S)C2)oc2c1ccc1ccccc12 (mixture of isomers)",
    "Ratio IC50": 2.02
  }
]

[P] O=c1cc([C@H]2CC[C@@H](S)CC2)oc2c1ccc1ccccc12
[Q] [N-]=[N+]=NCC1CCC(c2cc(=O)c3ccc4ccccc4c3o2)CC1 (mixture of isomers)
Record comparison, field Ratio IC50: mark the lower of P and Q . Your answer should be the label attached to the chosen record.
P
(P: 1.97, Q: 9.2)

* * *

- study-system: Cytochrome P450 1B1 (Homo sapiens, UniProt Q16678)
- Sequence (Q16678 whole entry): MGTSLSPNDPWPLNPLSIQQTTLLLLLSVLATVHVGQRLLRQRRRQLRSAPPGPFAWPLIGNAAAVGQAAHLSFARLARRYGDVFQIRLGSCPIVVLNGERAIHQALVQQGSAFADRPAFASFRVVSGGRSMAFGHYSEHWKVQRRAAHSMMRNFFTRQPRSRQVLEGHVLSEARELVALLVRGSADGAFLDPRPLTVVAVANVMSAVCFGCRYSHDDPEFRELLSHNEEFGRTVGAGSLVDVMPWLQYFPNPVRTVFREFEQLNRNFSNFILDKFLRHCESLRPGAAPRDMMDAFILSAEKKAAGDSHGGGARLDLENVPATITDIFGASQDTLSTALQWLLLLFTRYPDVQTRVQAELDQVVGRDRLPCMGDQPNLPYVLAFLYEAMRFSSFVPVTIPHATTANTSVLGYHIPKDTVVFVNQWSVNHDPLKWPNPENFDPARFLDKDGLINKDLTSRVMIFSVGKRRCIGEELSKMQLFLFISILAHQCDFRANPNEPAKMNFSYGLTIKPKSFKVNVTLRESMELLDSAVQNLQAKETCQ
- method-description: Inhibition of human recombinant CYP1B1 using 7-ethoxyresorufin as substrate assessed as percent enzyme activity at 1 uM after 30 mins in presence of NADPH by EROD assay relative to control
- Parameters: scale not given: the % may be the effect or the level left
- experimental-context: read-out: Activity
experimental-readout: activity at 0.5 h, 1 µM (%)

[A] O=c1cc(-c2ccc(S)cc2)oc2c1ccc1ccccc12
[B] C#C[C@H]1CC[C@@H](c2cc(=O)c3ccc4ccccc4c3o2)CC1
Param pair: A , B . Output: the one whose activity at 0.5 h, 1 µM is numerically greater. Your answer should be the label attached to the chosen record.
A
(A: 54.3%, B: 0.9%)

* * *

- study-system: CYP1A2 (Homo sapiens, UniProt P05177)
- Sequence (P05177 whole entry): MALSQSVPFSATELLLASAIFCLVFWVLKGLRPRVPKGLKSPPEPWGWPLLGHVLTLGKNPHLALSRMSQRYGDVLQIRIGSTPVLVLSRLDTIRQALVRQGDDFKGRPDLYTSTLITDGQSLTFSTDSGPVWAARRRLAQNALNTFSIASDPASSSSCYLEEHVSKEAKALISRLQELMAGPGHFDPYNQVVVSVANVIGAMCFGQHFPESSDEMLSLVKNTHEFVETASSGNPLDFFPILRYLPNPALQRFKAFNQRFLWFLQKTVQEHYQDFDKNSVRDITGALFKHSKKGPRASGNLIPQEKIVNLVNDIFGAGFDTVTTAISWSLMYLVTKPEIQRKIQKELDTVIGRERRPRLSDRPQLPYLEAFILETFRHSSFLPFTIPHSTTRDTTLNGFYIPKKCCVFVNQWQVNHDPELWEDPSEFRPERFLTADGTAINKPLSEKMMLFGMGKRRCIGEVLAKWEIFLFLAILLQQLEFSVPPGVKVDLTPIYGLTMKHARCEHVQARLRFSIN
- method-description: Inhibition of human recombinant CYP1A2 using 7-ethoxyresorufin as substrate assessed as percent enzyme activity at 1 uM after 30 mins in presence of NADPH by EROD assay relative to control
- Type: ADME
- Parameters: scale not given: the % may be the effect or the level left
- experimental-context: recombinant CYP1A2, probe 7-ethoxyresorufin, read-out: Activity
experimental-readout: activity at 0.5 h, 1 µM (%)

Past entries and their recorded results:
[
  {
    "compound": "C=C=C[C@H]1CC[C@H](c2cc(=O)c3ccc4ccccc4c3o2)CC1",
    "activity at 0.5 h, 1 µM (%)": -4.5
  },
  {
    "compound": "C#C[C@H]1CC[C@H](c2cc(=O)c3ccc4ccccc4c3o2)CC1",
    "activity at 0.5 h, 1 µM (%)": 8.8
  },
  {
    "compound": "N[C@H]1CC[C@@H](c2cc(=O)c3ccc4ccccc4c3o2)CC1",
    "activity at 0.5 h, 1 µM (%)": 74.5
  },
  {
    "compound": "O=c1cc(-c2cccc(S)c2)oc2c1ccc1ccccc12",
    "activity at 0.5 h, 1 µM (%)": 56.2
  },
  {
    "compound": "CS(=O)(=O)O[C@H]1CC[C@H](c2cc(=O)c3ccc4ccccc4c3o2)CC1",
    "activity at 0.5 h, 1 µM (%)": 80.3
  }
]

[P] Nc1ccc(-c2cc(=O)c3ccc4ccccc4c3o2)cc1
[Q] O=c1cc(C23CC4CC(CC(C4)C2)C3)oc2c1ccc1ccccc12
[R] COc1ccc(-c2cc(=O)c3ccc4ccccc4c3o2)cc1
[S] O=c1cc([C@H]2C[C@@H]3C=C[C@H]2C3)oc2c1ccc1ccccc12
Arrange the 4 compounds by rising activity at 0.5 h, 1 µM, starting with the smallest. In plain terms: list the labels in the order you were asked to.
P, R, S, Q

[1] CN(C)C(=O)Sc1ccc(-c2cc(=O)c3ccc4ccccc4c3o2)cc1
[2] CC(=O)S[C@H]1CC[C@H](c2cc(=O)c3ccc4ccccc4c3o2)CC1
[3] O=c1cc(-c2ccc(O)cc2)oc2c1ccc1ccccc12
[4] [N-]=[N+]=N[C@H]1CC[C@@H](c2cc(=O)c3ccc4ccccc4c3o2)CC1
Arrange the 4 compounds by rising activity at 0.5 h, 1 µM, starting with the smallest. In plain terms: list the labels in the order you were asked to.
3, 4, 2, 1

[I] CN(C)C(=S)Oc1ccc(-c2cc(=O)c3ccc4ccccc4c3o2)cc1
[II] O=c1cc(C2CCCCC2)oc2c1ccc1ccccc12
Record comparison, field activity at 0.5 h, 1 µM: mark the lower of I and II . Your answer should be the label attached to the chosen record.
II

[a] O=c1cc(-c2ccc(S)cc2)oc2c1ccc1ccccc12
[b] NC1CCCC(c2cc(=O)c3ccc4ccccc4c3o2)C1 (mixture of isomers)
Record comparison, field activity at 0.5 h, 1 µM: mark the lower of a and b . Your answer should be the label attached to the chosen record.
b
(b: 44.5%, a: 106%)

* * *

- Species: Homo sapiens
- method-description: Selectivity ratio of IC50 for human recombinant CYP1A2 to IC50 for human recombinant CYP1B1
experimental-readout: Ratio IC50

[
  {
    "compound": "O=c1cc([C@H]2CC[C@H](S)CC2)oc2c1ccc1ccccc12",
    "Ratio IC50": 17.1
  }
]

[1] C=C=C[C@H]1CC[C@H](c2cc(=O)c3ccc4ccccc4c3o2)CC1
[2] [N-]=[N+]=NCC1CCC(c2cc(=O)c3ccc4ccccc4c3o2)CC1 (mixture of isomers)
Param pair: 1 , 2 . Output: the one whose Ratio IC50 is numerically greater. Your answer should be the label attached to the chosen record.
2
(2: 18.5, 1: 2.7)

[P] CC(=O)S[C@H]1CC[C@H](c2cc(=O)c3ccc4ccccc4c3o2)CC1
[Q] [N-]=[N+]=N[C@H]1CC[C@H](c2cc(=O)c3ccc4ccccc4c3o2)CC1
[R] [N-]=[N+]=N[C@H]1CC[C@@H](c2cc(=O)c3ccc4ccccc4c3o2)CC1
[S] O=c1cc(-c2ccc(O)cc2)oc2c1ccc1ccccc12
Arrange the 4 compounds by rising Ratio IC50, starting with the smallest. In plain terms: list the labels in the order you were asked to.
Q, S, P, R
(Q: 8.8, S: 21, P: 33.7, R: 153)

* * *

- study-system: Cytochrome P450 1A2 (Homo sapiens)
- method-description: Inhibition of human recombinant CYP1A2 using 7-ethoxyresorufin as substrate after 30 mins in presence of NADPH by EROD assay
pIC50: −log10 of the molar value.
experimental-readout: pIC50

Past entries and their recorded results:
[
  {
    "smiles-data": "O=c1cc(-c2ccc(O)cc2)oc2c1ccc1ccccc12",
    "pIC50": 6.04
  },
  {
    "smiles-data": "O=c1cc([C@H]2CC[C@H](S)CC2)oc2c1ccc1ccccc12",
    "pIC50": 6.16
  },
  {
    "smiles-data": "[N-]=[N+]=Nc1cccc(-c2cc(=O)c3ccc4ccccc4c3o2)c1",
    "pIC50": 7.13
  }
]

[P] C=C=C[C@H]1CC[C@H](c2cc(=O)c3ccc4ccccc4c3o2)CC1
[Q] [N-]=[N+]=N[C@H]1CC[C@H](c2cc(=O)c3ccc4ccccc4c3o2)CC1
Record comparison, field pIC50: mark the lower of P and Q . Your answer should be the label attached to the chosen record.
Q
(Q: 5.92, P: 7.44)

* * *

- study-system: Cytochrome P450 1A1 (Homo sapiens)
- Sequence (P04798 whole entry): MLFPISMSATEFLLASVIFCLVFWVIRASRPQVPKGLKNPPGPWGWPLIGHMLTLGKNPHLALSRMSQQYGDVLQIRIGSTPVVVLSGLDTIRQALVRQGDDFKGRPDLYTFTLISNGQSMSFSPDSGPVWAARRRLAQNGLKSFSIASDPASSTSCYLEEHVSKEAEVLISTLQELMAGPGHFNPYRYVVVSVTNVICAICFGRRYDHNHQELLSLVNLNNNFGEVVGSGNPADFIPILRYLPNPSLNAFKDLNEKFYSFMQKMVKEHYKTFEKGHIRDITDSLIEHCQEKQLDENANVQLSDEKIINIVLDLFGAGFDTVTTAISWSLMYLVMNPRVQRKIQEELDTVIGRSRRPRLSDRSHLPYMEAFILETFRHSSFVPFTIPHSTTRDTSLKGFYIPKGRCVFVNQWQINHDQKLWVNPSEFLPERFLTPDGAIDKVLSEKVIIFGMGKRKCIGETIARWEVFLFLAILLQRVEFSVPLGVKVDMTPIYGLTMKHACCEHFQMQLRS
- method-description: Inhibition of human recombinant CYP1A1 using 7-ethoxyresorufin as substrate after 15 mins in presence of NADPH by EROD assay
experimental-readout: IC50 (nM)

Past entries and their recorded results:
[
  {
    "molecule": "CC(=O)S[C@H]1CC[C@H](c2cc(=O)c3ccc4ccccc4c3o2)CC1",
    "unit-string": "nM",
    "IC50": 15.9
  },
  {
    "molecule": "O=c1cc(C2CCCC(S)C2)oc2c1ccc1ccccc12 (mixture of isomers)",
    "unit-string": "nM",
    "IC50": 134
  },
  {
    "molecule": "[N-]=[N+]=N[C@H]1CC[C@H](c2cc(=O)c3ccc4ccccc4c3o2)CC1",
    "unit-string": "nM",
    "IC50": 1040
  },
  {
    "molecule": "[N-]=[N+]=NCC1CCC(c2cc(=O)c3ccc4ccccc4c3o2)CC1 (mixture of isomers)",
    "unit-string": "nM",
    "IC50": 216
  },
  {
    "molecule": "O=c1cc(-c2ccccc2)oc2c1ccc1ccccc12 [ALPHA-NAPHTHOFLAVONE]",
    "unit-string": "nM",
    "IC50": 53.8
  }
]

[1] O=c1cc([C@H]2CC[C@@H](S)CC2)oc2c1ccc1ccccc12
[2] C=C=C[C@H]1CC[C@@H](c2cc(=O)c3ccc4ccccc4c3o2)CC1
Param pair: 1 , 2 . Output: the one whose IC50 is numerically greater. Your answer should be the label attached to the chosen record.
1
(1: 76.2 nM, 2: 33 nM)
